# measured-target: HDM2 (Homo sapiens (Human), UniProt Q00987)
# Sequence (Q00987 17-125): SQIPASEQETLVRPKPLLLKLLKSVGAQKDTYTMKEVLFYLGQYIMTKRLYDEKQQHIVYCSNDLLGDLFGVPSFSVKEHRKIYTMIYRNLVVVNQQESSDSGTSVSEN
# protocol: HDM2 FRET assay (inhibition of p53 peptide binding to HDM2)
# test-parameters: read-out: FRET IC50
pIC50: −log10 of the molar value.
Consider the following molecules; for each one, report its pIC50.

>>> data_value("C[C@H]1CC[C@H](Cn2c(N3CCO[C@@H]4CCC[C@H]43)nc3cc(-c4nnn[nH]4)nc(-c4cncc(Cl)c4)c32)CC1")
"> 9.00"

Now consider a different molecule.
For the molecule shown here, C[C@H]1CC[C@H](Cn2c(N3CCC[C@H]3C(F)(F)F)nc3cc(-c4nnn[nH]4)nc(-c4cncc(Cl)c4)c32)CC1 , give the reported pIC50. > 9.00

All figures here come from patent US8846657B2.
